assay: Stability in human subcutaneous skin homogenate
Classify as follows. Reported Trep Concentration 120 min greater than or equal to 0.03 µM: yes (1). Reported Trep Concentration 120 min below: no (0).

Task: Evaluate CCCCCC(CCC1C(O)CC2Cc3c(cccc3OCC(=O)O)CC21)OC(=O)OC(C)C (stereo not drawn) [XVII] : Trep Concentration 120 min at minimum 0.03 µM?
Output: yes (1)

Task: Evaluate CCCCCC(CCC1C(O)CC2Cc3c(cccc3OCC(=O)O)CC21)OC (stereo not drawn) [XLV] : Trep Concentration 120 min at minimum 0.03 µM?
Output: no (0)

Task: Evaluate CCCCCC(CCC1C(O)CC2Cc3c(cccc3OCC(=O)O)CC21)OC(=O)C(N)CCCCN (stereo not drawn) [XXXV] : Trep Concentration 120 min at minimum 0.03 µM?
Output: yes (1)

Task: Evaluate CCCCC[C@@H](CC[C@@H]1[C@H]2Cc3cccc(OCC(=O)O)c3C[C@H]2C[C@H]1O)OC(=O)[C@@H](N)C(C)C [XXIX] : Trep Concentration 120 min at minimum 0.03 µM?
Output: yes (1)

Task: Evaluate CCCCCC(CCC1C(O)CC2Cc3c(cccc3OCC(=O)O)CC21)OC(=O)OCCOC (stereo not drawn) [XL] : Trep Concentration 120 min at minimum 0.03 µM?
Output: yes (1)

Task: Evaluate CCCCCC(CCC1C(O)CC2Cc3c(cccc3OCC(=O)O)CC21)OC(=O)CC (stereo not drawn) [LV] : Trep Concentration 120 min at minimum 0.03 µM?
Output: yes (1)

Task: Evaluate CCCCCC(CCC1C(O)CC2Cc3c(cccc3OCC(=O)O)CC21)OC(=O)NCC(=O)O (stereo not drawn) [XXXVIII] : Trep Concentration 120 min at minimum 0.03 µM?
Output: no (0)

Task: Evaluate CCCCCC(CCC1C(O)CC2Cc3c(cccc3OCC(=O)O)CC21)OC(=O)CCC(=O)O (stereo not drawn) [XX new] : Trep Concentration 120 min at minimum 0.03 µM?
Output: no (0)

---

assay: Stability in cryopreserved hepatocytes, rat
Can you tell me Trep Concentration (μM) 30 min for the items I'm about to list?
# output: bare number, implied unit µM

Task: Which Trep Concentration (μM) 30 min is reported for this compound? CCCCCC(CCC1C(O)CC2Cc3c(cccc3OCC(=O)O)CC21)OC(=O)CCC(=O)N1CCOCC1 (centres unmarked)
Output: 0.132

Task: Which Trep Concentration (μM) 30 min is reported for this compound? CCCCCC(CCC1C(O)CC2Cc3c(cccc3OCC(=O)O)CC21)OC(=O)NCCO (centres unmarked)
Output: 0

Task: Which Trep Concentration (μM) 30 min is reported for this compound? CCCCCC(CCC1C(O)CC2Cc3c(cccc3OCC(=O)O)CC21)OC(=O)C(N)CCCCN (centres unmarked)
Output: 0.129

Task: Which Trep Concentration (μM) 30 min is reported for this compound? CCCCCC(CCC1C(O)CC2Cc3c(cccc3OCC(=O)O)CC21)OP(=O)(O)O (centres unmarked)
Output: 0.635

Task: Which Trep Concentration (μM) 30 min is reported for this compound? CCCCCC(CCC1C(O)CC2Cc3c(cccc3OCC(=O)O)CC21)OC(=O)COc1ccc(OC(F)(F)F)cc1 (centres unmarked)
Output: 0.291

Task: Which Trep Concentration (μM) 30 min is reported for this compound? CCCCCC(CCC1C(O)CC2Cc3c(cccc3OCC(=O)O)CC21)OC(=O)c1ccc(O)c(O)c1 (centres unmarked)
Output: 0

Task: Which Trep Concentration (μM) 30 min is reported for this compound? CCCCCC(CCC1C(O)CC2Cc3c(cccc3OCC(=O)O)CC21)OC(N)=O (centres unmarked)
Output: 0.299

Task: Which Trep Concentration (μM) 30 min is reported for this compound? CCCCCC(CCC1C(O)CC2Cc3c(cccc3OCC(=O)O)CC21)OCC (centres unmarked)
Output: 0.0209

Task: Which Trep Concentration (μM) 30 min is reported for this compound? CCCCCC(CCC1C(O)CC2Cc3c(cccc3OCC(=O)O)CC21)OC (centres unmarked)
Output: 0.00483

Task: Which Trep Concentration (μM) 30 min is reported for this compound? CCCCCC(CCC1C(O)CC2Cc3c(cccc3OCC(=O)O)CC21)OC(=O)COc1ccccc1 (centres unmarked)
Output: 0.289

Task: Which Trep Concentration (μM) 30 min is reported for this compound? CCCCCC1CCC2C(CC3Cc4c(cccc4OCC(=O)O)CC32)OP(=O)(Oc2ccccc2)O1 (mixture of isomers)
Output: 0

Task: Which Trep Concentration (μM) 30 min is reported for this compound? CCCCCC(CCC1C(O)CC2Cc3c(cccc3OCC(=O)O)CC21)OC(=O)C1CCCN1 (centres unmarked)
Output: 0.511

Task: Which Trep Concentration (μM) 30 min is reported for this compound? CCCCCC(CCC1C(O)CC2Cc3c(cccc3OCC(=O)O)CC21)OC(=O)c1ccc(C(F)(F)F)cc1 (centres unmarked)
Output: 0.156

Task: Which Trep Concentration (μM) 30 min is reported for this compound? CCCCCC(CCC1C(O)CC2Cc3c(cccc3OCC(=O)O)CC21)OC(=O)c1cccc(O)c1 (centres unmarked)
Output: 0.0343

---

Test: Stability in cryopreserved hepatocytes, dog
Conditions: dog
Description: Mixed-gender human cryopreserved hepatocytes, male Sprague-Dawley rat cryopreserved hepatocytes, and male Beagle dog cryopreserved hepatocytes were purchased from XenoTech. […] An aliquot of the supernatant was then diluted with water and analyzed by LC-MS/MS against calibration standards prepared in a matched matrix. […] All test article samples were analyzed for the dosed prodrugs as well as the drug, treprostinil. […]
# note: exactly 20 µmol·min/L is not below, so it is Condition not met; use Condition met for AUC strictly under it

Task: Lab note: confirm whether the reported AUC for this compound is below 20 µmol·min/L, equality not counting. compound: CCCCCC(CCC1C(O)CC2Cc3c(cccc3OCC(=O)O)CC21)OCC(=O)O (centres unmarked)
Output: Condition met

Task: Lab note: confirm whether the reported AUC for this compound is below 20 µmol·min/L, equality not counting. compound: CCCCCC(CCC1C(O)CC2Cc3c(cccc3OCC(=O)O)CC21)OC(=O)COc1ccccc1 (centres unmarked)
Output: Condition not met

Task: Lab note: confirm whether the reported AUC for this compound is below 20 µmol·min/L, equality not counting. compound: CCCCCC(CCC1C(O)CC2Cc3c(cccc3OCC(=O)O)CC21)OC(N)=O (centres unmarked)
Output: Condition not met

Task: Lab note: confirm whether the reported AUC for this compound is below 20 µmol·min/L, equality not counting. compound: CCCCCC(CCC1C(O)CC2Cc3c(cccc3OCC(=O)O)CC21)OC(=O)c1ccc(C)cc1 (centres unmarked)
Output: Condition met

Task: Lab note: confirm whether the reported AUC for this compound is below 20 µmol·min/L, equality not counting. compound: CCCCCC(CCC1C(O)CC2Cc3c(cccc3OCC(=O)O)CC21)OCc1oc(=O)oc1C (centres unmarked)
Output: Condition not met

Task: Lab note: confirm whether the reported AUC for this compound is below 20 µmol·min/L, equality not counting. compound: CCCCC[C@H]1CC[C@@H]2[C@H]3Cc4cccc(OCC(=O)O)c4C[C@H]3C[C@H]2OC(=O)O1
Output: Condition not met

Task: Lab note: confirm whether the reported AUC for this compound is below 20 µmol·min/L, equality not counting. compound: CCCCCC(CCC1C(O)CC2Cc3c(cccc3OCC(=O)O)CC21)OC(=O)CCC(=O)N1CCOCC1 (centres unmarked)
Output: Condition met

Task: Lab note: confirm whether the reported AUC for this compound is below 20 µmol·min/L, equality not counting. compound: CCCCCC(CCC1C(O)CC2Cc3c(cccc3OCC(=O)O)CC21)OC(=O)C(C)C (centres unmarked)
Output: Condition not met

---

Can you tell me Trep Concentration 0 min for the items I'm about to list?
assay: Stability in liver microsomes, human
# output: bare number, implied unit µM

Task: Which Trep Concentration 0 min is reported for this compound? CCCCCC(CCC1C(O)CC2Cc3c(cccc3OCC(=O)O)CC21)OC(N)=O (centres unmarked)
Output: 0.361

Task: Which Trep Concentration 0 min is reported for this compound? CCCCCC(CCC1C(O)CC2Cc3c(cccc3OCC(=O)O)CC21)OC(=O)C(C)N (centres unmarked)
Output: 0.0531

Task: Which Trep Concentration 0 min is reported for this compound? CCCCCC(CCC1C(O)CC2Cc3c(cccc3OCC(=O)O)CC21)OC(=O)c1ccc(C)cc1 (centres unmarked)
Output: 0.202

Task: Which Trep Concentration 0 min is reported for this compound? CCCCCC(CCC1C(OC(=O)CC)CC2Cc3c(cccc3OCC(=O)O)CC21)OC(=O)CC (centres unmarked) [Prodrug LXX, treprostinil dipropionate]
Output: 1.18

Task: Which Trep Concentration 0 min is reported for this compound? CCCCCC(CCC1C(O)CC2Cc3c(cccc3OCC(=O)O)CC21)OC(=O)N1CCC(O)CC1 (centres unmarked)
Output: 0

Task: Which Trep Concentration 0 min is reported for this compound? CCCCCC(CCC1C(O)CC2Cc3c(cccc3OCC(=O)O)CC21)OP(=O)(O)O (centres unmarked)
Output: 0.02

Task: Which Trep Concentration 0 min is reported for this compound? CCCCCC(CCC1C(O)CC2Cc3c(cccc3OCC(=O)O)CC21)OC(=O)CO (centres unmarked)
Output: 0.624

Task: Which Trep Concentration 0 min is reported for this compound? CCCCCC(CCC1C(O)CC2Cc3c(cccc3OCC(=O)O)CC21)OC(=O)COc1ccc(O)cc1 (centres unmarked)
Output: 0.908

Task: Which Trep Concentration 0 min is reported for this compound? CCCCCC(CCC1C(O)CC2Cc3c(cccc3OCC(=O)O)CC21)OC(=O)c1cccc(O)c1 (centres unmarked)
Output: 0.105

Task: Which Trep Concentration 0 min is reported for this compound? CCCCCC(CCC1C(O)CC2Cc3c(cccc3OCC(=O)O)CC21)OC(=O)c1ccc(C(F)(F)F)cc1 (centres unmarked)
Output: 0.0917

Task: Which Trep Concentration 0 min is reported for this compound? CCCCCC(CCC1C(O)CC2Cc3c(cccc3OCC(=O)O)CC21)OC(=O)COc1ccc(OC(F)(F)F)cc1 (centres unmarked)
Output: 0.911
